Origin of the recorded values: patent US7253202B2

Molecular target: serotonin reuptake (Rattus norvegicus)
Sequence (P31652 whole entry): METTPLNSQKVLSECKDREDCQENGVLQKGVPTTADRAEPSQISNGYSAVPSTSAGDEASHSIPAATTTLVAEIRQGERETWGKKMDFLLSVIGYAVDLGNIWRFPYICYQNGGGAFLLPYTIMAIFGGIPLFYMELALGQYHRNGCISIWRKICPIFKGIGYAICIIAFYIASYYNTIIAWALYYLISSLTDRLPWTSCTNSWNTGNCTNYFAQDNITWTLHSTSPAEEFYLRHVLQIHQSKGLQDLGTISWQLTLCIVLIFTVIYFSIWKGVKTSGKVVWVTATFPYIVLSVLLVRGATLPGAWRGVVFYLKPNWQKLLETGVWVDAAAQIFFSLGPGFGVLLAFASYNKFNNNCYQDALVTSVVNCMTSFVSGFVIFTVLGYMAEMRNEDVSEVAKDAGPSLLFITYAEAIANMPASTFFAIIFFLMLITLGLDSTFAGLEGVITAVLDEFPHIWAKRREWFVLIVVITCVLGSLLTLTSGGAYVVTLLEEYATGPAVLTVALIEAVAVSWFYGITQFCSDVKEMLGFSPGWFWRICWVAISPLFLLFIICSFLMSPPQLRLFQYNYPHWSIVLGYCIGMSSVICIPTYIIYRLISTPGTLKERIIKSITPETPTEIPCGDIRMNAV
Assay: Serotonin reuptake inhibition by synaptosomal uptake inhibition (Wong et al.)
Details: read-out: SSRI (IC50 in nmol/l)
Text: For ex-vivo detection of serotonin reuptake inhibition, use can be made, for example, of synaptosomal uptake inhibition (Wong et al., Neuropsychopharmacol. 8 (1993), 23-33) and p-chloroamphetamine antagonism (Fuller et al., J. Pharmacol. Exp. Ther. 212 (1980), 115-119). The serotonin reuptake inhibition was investigated with the aid of synaptosomal uptake inhibition by the method of Wong et al. (Neuropsycho-pharmacol. 8 (1993), 23-33).
pIC50: −log10 of the molar value.
quantity.measured: pIC50

Guide cases for pIC50, answers given:
compound	quantity.measured	result
COc1cccc2c1OCC(NCCCCc1c[nH]c3ccc(C#N)cc13)CO2 (centres unmarked)	pIC50	9.00
Cc1cccc2c1OCC(NCCCCc1c[nH]c3ccc(C#N)cc13)CO2 (centres unmarked)	pIC50	8.52
N#Cc1ccc2[nH]cc(CCCCNCC3CCOc4ccccc4O3)c2c1 (centres unmarked)	pIC50	9.22

[A] N#Cc1ccc2[nH]cc(CCCCNC3COc4ccccc4OC3)c2c1
[B] Cc1ccc2c(c1)OCC(NCCCCc1c[nH]c3ccc(C#N)cc13)CO2 (centres unmarked)
Query :: Kindly identify which of A and B has the larger recorded pIC50 value. Please indicate the selected item by its label.
Result :: B
(B: 8.40, A: 8.10)
